organism: Oryctolagus cuniculus; assay: Inhibition of rabbit skeletal myosin 2 ATPase activity at 5 uM relative to control
outcome measure: inhibition (%)
Expressed in %, but write only the number.

Use the examples below as a reference point.
- line notation: "O=C1c2ccccc2N=C2N(c3ccccc3)CC[C@@]12O"
  units of measure: "%"
  inhibition: 84
- line notation: "Cc1cccc2c1C(=O)[C@]1(O)CCN(c3ccccc3)C1=N2"
  units of measure: "%"
  inhibition: 86
- line notation: "Cc1cccc2c1N=C1N(c3ccccc3)CC[C@@]1(O)C2=O"
  units of measure: "%"
  inhibition: 31

The value of inhibition measured for the compound Cc1ccc2c(c1)N=C1N(c3ccccc3)CC[C@@]1(O)C2=O turned out to be 86

====

assay: Toxicity in Dictyostelium discoideum assessed as mortality at 20 uM after 3 days relative to control; assay type: organism-based; conditions: Dictyostelium discoideum cells, read-out: Activity
outcome measure: mortality at 72 h, 20 µM (%)
Expressed in %, but write only the number.

The value of mortality at 72 h, 20 µM measured for the compound Cc1ccc2c(c1)C(=O)[C@]1(O)CCN(c3ccccc3)C1=N2 turned out to be 0

====

test: Steady state aqueous solubility of the compound in 0.1 % DMSO buffer at 25 degC; type: physicochemical; conditions: aqueous buffer with 0.1% DMSO
outcome measure: solubility

The value of solubility measured for the compound Cc1ccc2c(c1)C(=O)[C@]1(O)CCN(c3ccccc3)C1=N2 turned out to be 7 to 11 µM

====

// reported IC50 for each item listed
molecular target: Myosin-2 heavy chain (Dictyostelium discoideum); assay: Inhibition of Dictyostelium discoideum myosin 2 ATPase activity by NADH-coupled assay
Expressed in µM, but write only the number.

- line notation: "Cc1ccc2c(c1)C(=O)[C@]1(O)CCN(c3ccc(N=[N+]=[N-])cc3)C1=N2"
  IC50 / µM: 5.2

The value of IC50 measured for the compound Cc1ccc2c(c1)C(=O)[C@]1(O)CCN(c3ccc([N+](=O)[O-])cc3)C1=N2 turned out to be 2.3

====

target: Myosin-14 (Mus musculus, UniProt Q6URW6)
outcome measure: IC50 (µM)
Expressed in µM, but write only the number.

The value of IC50 measured for the compound Cc1ccc2c(c1)C(=O)C1(O)CCN(c3ccccc3)C1=N2 (racemic) turned out to be 3.2

====

target: Myosin-4 (Oryctolagus cuniculus)
outcome measure: IC50

The value of IC50 measured for the molecule Cc1ccc2c(c1)C(=O)C1(O)CCN(c3ccccc3)C1=N2 (racemic) turned out to be 0.22 to 4.32 µM

====

biological target: Myosin-7 (Sus scrofa)
outcome measure: pIC50
Remember the convention: pIC50 equals -log10 of concentration in molar.

Tested on Myosin-7 (Sus scrofa), the item Cc1ccc2c(c1)C(=O)C1(O)CCN(c3ccccc3)C1=N2 (racemic) showed pIC50 equal to 5.92

====

molecular target: Myosin-2 heavy chain (Dictyostelium discoideum, UniProt P08799); test: Inhibition of Dictyostelium discoideum myosin 2 ATPase activity
Sequence (P08799 whole entry): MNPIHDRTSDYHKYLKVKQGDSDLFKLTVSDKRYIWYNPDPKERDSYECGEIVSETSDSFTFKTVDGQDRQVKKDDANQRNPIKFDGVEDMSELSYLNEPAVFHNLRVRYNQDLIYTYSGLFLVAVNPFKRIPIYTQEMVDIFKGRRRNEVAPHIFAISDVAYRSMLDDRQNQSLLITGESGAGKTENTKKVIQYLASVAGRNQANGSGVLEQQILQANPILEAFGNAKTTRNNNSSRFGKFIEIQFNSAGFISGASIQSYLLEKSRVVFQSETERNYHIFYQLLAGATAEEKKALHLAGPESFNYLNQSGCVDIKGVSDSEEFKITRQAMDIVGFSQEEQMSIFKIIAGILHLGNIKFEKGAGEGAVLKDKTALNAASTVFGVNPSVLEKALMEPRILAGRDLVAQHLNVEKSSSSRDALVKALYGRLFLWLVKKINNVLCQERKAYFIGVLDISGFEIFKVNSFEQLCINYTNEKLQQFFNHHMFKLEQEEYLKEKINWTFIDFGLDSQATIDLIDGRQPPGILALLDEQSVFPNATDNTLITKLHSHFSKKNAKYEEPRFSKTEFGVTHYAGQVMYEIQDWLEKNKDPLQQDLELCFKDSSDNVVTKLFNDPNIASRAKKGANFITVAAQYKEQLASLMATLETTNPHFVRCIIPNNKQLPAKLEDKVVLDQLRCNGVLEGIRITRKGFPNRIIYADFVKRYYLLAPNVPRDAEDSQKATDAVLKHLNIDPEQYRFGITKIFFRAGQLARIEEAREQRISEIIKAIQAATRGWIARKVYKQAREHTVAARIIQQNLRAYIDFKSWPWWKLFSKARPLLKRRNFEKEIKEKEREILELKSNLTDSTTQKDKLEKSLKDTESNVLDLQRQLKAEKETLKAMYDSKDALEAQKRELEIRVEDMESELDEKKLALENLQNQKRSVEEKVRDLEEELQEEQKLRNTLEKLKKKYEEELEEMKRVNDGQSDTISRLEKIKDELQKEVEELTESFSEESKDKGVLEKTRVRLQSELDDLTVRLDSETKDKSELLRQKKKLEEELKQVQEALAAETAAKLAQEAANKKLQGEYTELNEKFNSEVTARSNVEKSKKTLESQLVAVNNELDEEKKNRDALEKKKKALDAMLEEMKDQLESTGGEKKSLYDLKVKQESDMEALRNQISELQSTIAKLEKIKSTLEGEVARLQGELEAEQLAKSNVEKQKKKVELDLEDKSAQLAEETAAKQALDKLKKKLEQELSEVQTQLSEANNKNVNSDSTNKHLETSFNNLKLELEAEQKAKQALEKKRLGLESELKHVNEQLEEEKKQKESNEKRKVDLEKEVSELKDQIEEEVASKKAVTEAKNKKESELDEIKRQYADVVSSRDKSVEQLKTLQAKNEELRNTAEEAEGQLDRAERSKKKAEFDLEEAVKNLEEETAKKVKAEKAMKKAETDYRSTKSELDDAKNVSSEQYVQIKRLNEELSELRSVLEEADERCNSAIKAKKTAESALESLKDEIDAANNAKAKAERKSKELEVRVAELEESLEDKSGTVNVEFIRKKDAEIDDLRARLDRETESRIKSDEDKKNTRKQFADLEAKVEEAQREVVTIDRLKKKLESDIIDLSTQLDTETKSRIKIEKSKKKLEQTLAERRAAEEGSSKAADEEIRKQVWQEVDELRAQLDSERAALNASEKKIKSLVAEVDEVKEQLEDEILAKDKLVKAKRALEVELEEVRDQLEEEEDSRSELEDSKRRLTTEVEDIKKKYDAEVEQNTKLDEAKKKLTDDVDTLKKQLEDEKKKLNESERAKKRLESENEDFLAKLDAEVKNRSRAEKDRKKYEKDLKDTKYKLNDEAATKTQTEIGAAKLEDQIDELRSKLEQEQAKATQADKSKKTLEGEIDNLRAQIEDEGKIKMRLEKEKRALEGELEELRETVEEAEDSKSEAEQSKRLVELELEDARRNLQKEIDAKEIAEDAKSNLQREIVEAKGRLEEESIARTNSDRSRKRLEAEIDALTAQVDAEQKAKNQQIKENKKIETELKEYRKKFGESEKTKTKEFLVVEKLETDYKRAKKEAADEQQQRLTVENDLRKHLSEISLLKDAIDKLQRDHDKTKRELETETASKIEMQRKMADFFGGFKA
outcome measure: pIC50
Remember the convention: pIC50 equals -log10 of concentration in molar.

The value of pIC50 measured for the compound Cc1ccc2c(c1)C(=O)[C@]1(O)CCN(c3ccc(Cl)cc3)C1=N2 turned out to be 5.72

====

biological target: Nonmuscle myosin heavy chain (Gallus gallus, UniProt Q789A4)
Sequence (Q789A4 whole entry): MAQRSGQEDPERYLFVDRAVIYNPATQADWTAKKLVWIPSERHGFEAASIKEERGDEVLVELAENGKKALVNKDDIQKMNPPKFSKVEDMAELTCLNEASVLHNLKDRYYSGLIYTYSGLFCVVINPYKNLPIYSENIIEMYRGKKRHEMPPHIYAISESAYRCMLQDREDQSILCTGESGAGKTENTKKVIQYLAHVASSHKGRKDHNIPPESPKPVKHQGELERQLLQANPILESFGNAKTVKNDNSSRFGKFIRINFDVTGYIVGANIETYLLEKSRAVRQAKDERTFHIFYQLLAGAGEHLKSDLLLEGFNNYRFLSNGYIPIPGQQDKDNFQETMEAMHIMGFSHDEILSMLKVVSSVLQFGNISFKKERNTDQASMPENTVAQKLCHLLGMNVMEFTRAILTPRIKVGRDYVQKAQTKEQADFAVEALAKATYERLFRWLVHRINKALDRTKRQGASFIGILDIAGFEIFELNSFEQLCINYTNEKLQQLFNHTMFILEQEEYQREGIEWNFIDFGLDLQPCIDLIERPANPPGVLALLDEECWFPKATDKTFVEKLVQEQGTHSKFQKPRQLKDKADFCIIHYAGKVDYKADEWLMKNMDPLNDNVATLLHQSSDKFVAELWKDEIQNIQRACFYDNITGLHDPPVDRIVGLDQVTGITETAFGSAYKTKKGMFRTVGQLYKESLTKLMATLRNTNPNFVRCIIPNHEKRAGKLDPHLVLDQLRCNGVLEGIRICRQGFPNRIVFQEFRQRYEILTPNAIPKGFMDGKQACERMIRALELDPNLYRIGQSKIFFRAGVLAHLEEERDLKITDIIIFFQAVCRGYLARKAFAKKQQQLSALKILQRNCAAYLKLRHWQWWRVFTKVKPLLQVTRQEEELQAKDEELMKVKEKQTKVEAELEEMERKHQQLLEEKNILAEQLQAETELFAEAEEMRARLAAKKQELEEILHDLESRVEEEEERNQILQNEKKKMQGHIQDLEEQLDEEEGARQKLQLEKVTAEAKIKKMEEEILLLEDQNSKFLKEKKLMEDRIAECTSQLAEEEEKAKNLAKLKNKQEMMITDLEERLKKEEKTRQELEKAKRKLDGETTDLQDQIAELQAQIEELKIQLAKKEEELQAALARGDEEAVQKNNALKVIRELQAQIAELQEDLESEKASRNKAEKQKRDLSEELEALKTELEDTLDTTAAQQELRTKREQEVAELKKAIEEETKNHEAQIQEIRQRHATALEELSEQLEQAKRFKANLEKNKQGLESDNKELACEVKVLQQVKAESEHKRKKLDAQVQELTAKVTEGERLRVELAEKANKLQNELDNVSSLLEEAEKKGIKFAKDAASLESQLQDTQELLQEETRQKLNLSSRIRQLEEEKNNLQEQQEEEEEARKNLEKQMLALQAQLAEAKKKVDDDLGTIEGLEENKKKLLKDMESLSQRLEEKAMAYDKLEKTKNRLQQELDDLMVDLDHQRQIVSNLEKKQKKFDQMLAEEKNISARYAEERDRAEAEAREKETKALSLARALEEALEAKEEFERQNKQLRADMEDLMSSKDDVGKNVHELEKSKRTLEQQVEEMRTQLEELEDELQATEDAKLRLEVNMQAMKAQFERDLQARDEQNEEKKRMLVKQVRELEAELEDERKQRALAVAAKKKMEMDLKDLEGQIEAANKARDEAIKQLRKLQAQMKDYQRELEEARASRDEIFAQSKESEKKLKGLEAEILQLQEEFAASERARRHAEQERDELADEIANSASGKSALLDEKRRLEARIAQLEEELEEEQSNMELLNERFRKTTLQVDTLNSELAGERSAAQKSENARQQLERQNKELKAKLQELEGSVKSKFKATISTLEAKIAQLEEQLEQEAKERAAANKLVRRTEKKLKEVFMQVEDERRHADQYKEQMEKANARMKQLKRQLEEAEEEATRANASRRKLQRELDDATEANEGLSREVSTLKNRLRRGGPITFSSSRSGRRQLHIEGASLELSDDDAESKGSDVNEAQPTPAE
outcome measure: pIC50
Remember the convention: pIC50 equals -log10 of concentration in molar.

Tested on Nonmuscle myosin heavy chain (Gallus gallus, UniProt Q789A4), the item Cc1ccc2c(c1)C(=O)C1(O)CCN(c3ccccc3)C1=N2 (racemic) showed pIC50 equal to 5.74
